The following compounds are shown together with reported Na values.
- Organism: Rattus norvegicus
- ASSAY_OVERVIEW: Open TG-GATES - Regimen: Daily Repeat
- Assay type: toxicity, organism-based, Sprague-Dawley
- Set-up: regimen Daily Repeat, gender Male, age 6 weeks
- CONDITION_NOTES: in vivo, po, 1000 mg/kg, 72 h, tissue Plasma, route gavage, dose level High, time 3 day
Value expressed in meq/L; do not type the unit.

{"COMPOUND": "CN/C(=N/CCSCc1nc[nH]c1C)NC#N [CIMETIDINE]", "UNITS_TEXT": "meq/L", "Na": 140.8}
{"COMPOUND": "CCOc1ccc(NC(C)=O)cc1 [PHENACETIN]", "UNITS_TEXT": "meq/L", "Na": 143.8}
{"COMPOUND": "COC(=O)C1=C(C)NC(C)=C(C(=O)OC)C1c1ccccc1[N+](=O)[O-] [NIFEDIPINE]", "UNITS_TEXT": "meq/L", "Na": 143.6}
{"COMPOUND": "CNC(=C[N+](=O)[O-])NCCSCc1ccc(CN(C)C)o1 [RANITIDINE]", "UNITS_TEXT": "meq/L", "Na": 140.6}

Need Na, item Cc1nnc2n1-c1ccc(Cl)cc1C(c1ccccc1Cl)=NC2 [TRIAZOLAM] 141.6

Need Na, item O=C(OC[C@H]1O[C@@H](OC(=O)c2cc(O)c(O)c(OC(=O)c3cc(O)c(O)c(O)c3)c2)[C@H](OC(=O)c2cc(O)c(O)c(OC(=O)c3cc(O)c(O)c(O)c3)c2)[C@@H](OC(=O)c2cc(O)c(O)c(OC(=O)c3cc(O)c(O)c(O)c3)c2)[C@@H]1OC(=O)c1cc(O)c(O)c(OC(=O)c2cc(O)c(O)c(O)c2)c1)c1cc(O)c(O)c(OC(=O)c2cc(O)c(O)c(O)c2)c1 [TANNIC ACID] 139.4
